The origin of these recorded values is the supplement of paper PMC5998384.

Tested on: HeLa Kyoto;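 note: synchronized HeLa Kyoto cells (double thymidine block for G1/S, nocodazole release for mitosis), protein amounts in NP-40 versus SDS lysates quantified by mass spectrometry, three biological replicates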
experiment-notes: solubility change mitosis vs G1/S (difference of NP-40 vs SDS log2 ratios) (log2 ratio difference); higher = more soluble in mitosis
value-type: solubility change mitosis (log2)

Recorded result, MQAERGARGGRGRRPGRGRPGGDRHSERPGAAAAVARGGGGGGGGDGGGRRGRGRGRGFRGARGGRGGGGAPRGSRREPGGWGAGASAPVEDDSDAETYGEENDEQGNYSKRKIVSNWDRYQDIEKEVNNESGESQRGTDFSVLLSSAGDSFSQFRFAEEKEWDSEASCPKQNSAFYVDSELLVRALQELPLCLRLNVAAELVQGTVPLEVPQVKPKRTDDGKGLGMQLKGPLGPGGRGPIFELKSVAAGCPVLLGKDNPSPGPSRDSQKPTSPLQSAGDHLEEELDLLLNLDAPIKEGDNILPDQTSQDLKSKEDGEVVQEEEVCAKPSVTEEKNMEPEQPSTSKNVTEEELEDWLDSMIS [AVEN] , solubility change mitosis (log2): 0.0958
